Test System: Cytochrome P450 2C19 (Homo sapiens) (UniProt P33261)
Sequence (P33261 whole entry, looked up): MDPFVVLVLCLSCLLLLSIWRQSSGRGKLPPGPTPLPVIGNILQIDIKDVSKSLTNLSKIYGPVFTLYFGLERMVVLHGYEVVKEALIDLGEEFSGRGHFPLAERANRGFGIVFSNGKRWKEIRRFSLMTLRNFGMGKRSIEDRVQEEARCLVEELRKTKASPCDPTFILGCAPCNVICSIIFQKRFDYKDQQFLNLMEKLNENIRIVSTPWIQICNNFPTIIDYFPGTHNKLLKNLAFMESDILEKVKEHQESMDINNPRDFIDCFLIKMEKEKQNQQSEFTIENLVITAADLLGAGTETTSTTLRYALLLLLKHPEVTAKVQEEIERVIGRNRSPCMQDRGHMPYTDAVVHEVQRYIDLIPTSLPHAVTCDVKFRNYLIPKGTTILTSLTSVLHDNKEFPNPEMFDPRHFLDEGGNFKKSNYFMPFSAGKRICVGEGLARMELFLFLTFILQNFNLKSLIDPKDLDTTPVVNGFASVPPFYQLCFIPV
Method: Cytochrome panel assay with activity outcomes
Test Settings: recombinant CYP, pro-luciferin dealkylation, luminescence, p450-cyp2c19; series mostly up to 57.1 µM
The campaign covered roughly 16,000 compounds. About 5,800 (36%) were called active. About 23% were inconclusive and are not listed. Calls come from the whole dose curve; as a rule, active = well fitted curve in the direction sought with a large enough effect; inconclusive = small, poorly fitted or top-dose-only effect, or effect the other way; inactive = no such curve, though single readings can be large or run the other way. The list shows a part of the results.
Labels: active, inactive

Compound	Assigned Label
C[C@H](O)[C@H](O)[C@@H]1CNc2nc(N)[nH]c(=O)c2N1	inactive
O=C(O)[C@H]1CCCNC1	inactive
COc1cc(C(=O)NCc2cccc3ccccc23)cc(Cl)c1OC	active
O=C(CSCc1ccccc1Cl)NNC(=O)c1ccccc1	active
Cc1cc(C2C(C#N)=C(N)OC3=C2C(=O)CC(C)(C)C3)c(C)s1 (stereo unspecified)	active
C[N+](C)(C)CCCCCC[N+](C)(C)C	inactive
CCC(C(=O)c1ccccc1)N(C(=O)c1ccccc1Cl)N1C(=O)C2C3C=CC(C3)C2C1=O (stereo unspecified)	active
CCCCCCC(C)n1cc(C(C)=O)c(=O)[nH]c1=O (stereo unspecified)	active
COC(=O)[C@@H]1[C@@H]2C[C@H]3c4[nH]c5cc(OC)ccc5c4CCN3C[C@@H]2C[C@H](OC(=O)c2cc(OC)c(OC)c(OC)c2)[C@H]1OC	inactive
CCC(=O)NC(Nc1sc2c(c1C(=O)OC)CCCC2)(C(F)(F)F)C(F)(F)F	active
Cc1c(NC(=O)NC(C)N2C(=O)C3C4C=CC(C4)C3C2=O)c(=O)n(-c2ccccc2)n1C (stereo unspecified)	inactive
C[C@@]1(C(NC(=O)Cc2ccc(C(F)(F)F)cc2)c2ccc(-c3ccccc3)cc2)C[C@H]1C1CCCCC1 (stereo partly specified)	inactive
NS(=O)(=O)c1cc2c(cc1Cl)N[C@@H](CC1CCCC1)NS2(=O)=O	inactive
N[C@@H](Cn1cc(F)c(=O)[nH]c1=O)C(=O)O	inactive
COCCn1c(=O)c(C)nc2cnc(N3CCNCC3)nc21	inactive
O=C(CSCc1ccccc1Cl)NNC(=S)Nc1ccccc1	active
CC1CCN(c2ccc(S(=O)(=O)Nc3cc(C(=O)O)cc(C(=O)O)c3)cc2[N+](=O)[O-])CC1	active
COc1cc(O)c2c(O)c3c(c4c2c1[C@@]1(C4)C(C)=CCCC1(C)C)[C@H](O)[C@@]1(O)CC(=O)C(C(N)=O)=C(O)[C@]1(O)C3=O	active
C[N+]1(C)CCC(OC(=O)C(c2ccccc2)c2ccccc2)CC1	inactive
C[C@H](C(=O)c1ccccc1)[C@@H](c1ccccc1)N1CCOCC1	active
COc1ccccc1NC(=S)NCCc1ccccc1	active
